Here the recorded EC50 is given for each entry.
Test system: erythroid progenitor cells (EPCs)
Assay: Fetal hemoglobin (HbF) ELISA in day 7 erythroid progenitor cells;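 also: for fetal hemoglobin induction normalized to vehicle-treated cells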
Assay type: cell-based, human
Settings: Homo sapiens, Erythroid progenitor cell, HbF ELISA, day 7 EPCs, 5 days; read-out: EPC ELISA (pEC50 category) (converted)
property label: EC50

molecule="CCc1c(C#N)c(SC(C(N)=O)c2ccccc2)nc(N2CCC[C@H](NC3COC3)C2)c1C#N (stereo partly drawn)" property_label=EC50 meas_value="< 316 nM"
molecule="CCc1c(C#N)c(S[C@H](C)c2ccc(N(C)S(C)(=O)=O)cc2)nc(N2CCC(N)CC2)c1C#N (single isomer, unassigned)" property_label=EC50 meas_value="1000 to 31600 nM"
molecule="CCc1c(C#N)c(SC(C(N)=O)c2ccccc2)nc(N2CCC(NC)C(F)C2)c1C#N (stereo not drawn)" property_label=EC50 meas_value="< 316 nM"
molecule="CCc1c(C#N)c(SC(C(N)=O)c2ccccc2)nc(N(C)CCNCCOC)c1C#N (stereo not drawn)" property_label=EC50 meas_value="< 316 nM"
molecule=CCc1c(C#N)c(SCc2ccc(CNC(C)=O)cc2)nc(N(C)CCO)c1C#N property_label=EC50 meas_value="1000 to 31600 nM"
molecule=CCc1c(C#N)c(N[C@@H](C(N)=O)c2ccccc2)nc(N2CCCN(CCO)CC2)c1C#N property_label=EC50 meas_value="1000 to 31600 nM"
molecule=CCc1c(C#N)c(SCc2ccc(-c3cccnc3)cc2)nc(N2CCC(N3CCCC3)CC2)c1C#N property_label=EC50 meas_value="> 31600 nM"
molecule="CN(CCOC(N)=O)c1nc(SC(C(N)=O)c2ccccc2)c(C#N)c(C2CC2)c1C#N (stereo not drawn)" property_label=EC50 meas_value="1000 to 31600 nM"
molecule="N#Cc1c(SC(C(N)=O)c2ccccc2)nc(N2CC[C@H](N)C2)c(C#N)c1C1CC1 (stereo partly drawn)" property_label=EC50 meas_value="< 316 nM"
molecule="CCc1c(C#N)c(SC(C(N)=O)c2ccccc2)nc(N2CCC[C@@H](CNCC(C)(C)C)C2)c1C#N (stereo partly drawn)" property_label=EC50 meas_value="< 316 nM"
molecule=CCc1c(C#N)c(SCc2csc(NC(C)=O)n2)nc(N2CCCN(C)CC2)c1C#N property_label=EC50 meas_value="> 31600 nM"
molecule="CCc1c(C#N)c(SC(C(N)=O)c2ccccc2)nc(N2CCC(N(C)CC(C)(C)OC)CC2)c1C#N (stereo not drawn)" property_label=EC50 meas_value="< 316 nM"
molecule="CCc1c(C#N)c(SC(C(N)=O)c2ccccc2)nc(N2CCC3(CCCNC3)CC2)c1C#N (stereo not drawn)" property_label=EC50 meas_value="< 316 nM"
molecule=CCc1c(C#N)c(SCc2ccc(N(C)S(C)(=O)=O)cc2)nc(N2CCC(NC(=O)C(C)(C)N)CC2)c1C#N property_label=EC50 meas_value="< 316 nM"
molecule="CCc1c(C#N)c(SC(C(N)=O)c2ccccc2)nc(N2CCC(N3CC[C@H](F)C3)CC2)c1C#N (stereo partly drawn)" property_label=EC50 meas_value="< 316 nM"
